Values from paper PMC8920304

Entries and their IC50
Test target: CYP3A4 (Homo sapiens, UniProt P08684)
Construct: The primary incubation mixture contains HLM, potassium phosphate buffer; from tissue; host or cells: human liver microsomes (HLM)
Sequence (P08684 whole entry): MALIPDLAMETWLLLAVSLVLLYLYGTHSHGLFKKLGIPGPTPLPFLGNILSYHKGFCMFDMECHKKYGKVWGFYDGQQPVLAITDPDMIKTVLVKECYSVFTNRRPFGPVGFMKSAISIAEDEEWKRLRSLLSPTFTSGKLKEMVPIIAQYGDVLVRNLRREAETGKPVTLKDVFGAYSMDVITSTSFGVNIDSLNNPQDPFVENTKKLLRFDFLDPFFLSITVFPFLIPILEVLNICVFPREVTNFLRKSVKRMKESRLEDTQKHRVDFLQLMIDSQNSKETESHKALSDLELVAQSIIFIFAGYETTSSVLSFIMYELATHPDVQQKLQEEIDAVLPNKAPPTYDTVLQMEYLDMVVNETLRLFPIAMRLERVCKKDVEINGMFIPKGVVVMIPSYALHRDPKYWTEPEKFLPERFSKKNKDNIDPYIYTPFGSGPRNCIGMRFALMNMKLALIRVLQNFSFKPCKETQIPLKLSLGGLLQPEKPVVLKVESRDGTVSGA
Experimental protocol: Inhibition of CYP3A4-mediated oxidation of clinical drugs (tamoxifen, gefitinib, ticagrelor) in HLM, LC-MS/MS
Type: in vitro ADME
Experimental parameters: ticagrelor 30 μM, dehydroxyethoxylation, 30 min, ± SD, read-out: IC50 toward ticagrelor
Report as a plain number; the unit µM is understood.

{"columns": ["Compound smiles", "Unit of measure", "IC50"],
 "data": [
  ["O=c1cc(-c2ccc(O)c(-c3c(O)cc(O)c4c(=O)cc(-c5ccc(O)cc5)oc34)c2)oc2cc(O)cc(O)c12", "µM", 2.92],
  ["COc1cc(O)c2c(=O)cc(-c3ccc(OC)c(-c4c(O)cc(O)c5c(=O)cc(-c6ccc(O)cc6)oc45)c3)oc2c1", "µM", 1.61],
  ["COc1ccc(-c2cc(=O)c3c(O)cc(O)c(-c4cc(-c5cc(=O)c6c(O)cc(O)cc6o5)ccc4OC)c3o2)cc1", "µM", 10.2]
]}

Which measured IC50 belongs to COc1ccc(-c2cc(=O)c3c(O)cc(O)cc3o2)cc1-c1c(O)cc(O)c2c(=O)cc(-c3ccc(O)cc3)oc12 , tested on CYP3A4 (Homo sapiens, UniProt P08684)?
3.5
